System: Cochliobolus miyabeanus
experiment: In vivo protective test on Cochliobolus miyabeanus (rice)
setup conditions: dose 250 ppm of active ingredient, evaluated 4 days after inoculation
Measured Efficacy values are reported for all entries that follow.
quantity name: Efficacy

{"molecule": "COC(c1ccc(Cl)cc1Cl)C(C)NC(=O)c1c(C(F)F)nn(C)c1F (stereo not drawn)", "quantity name": "Efficacy", "endpoint value": "98%"}
{"molecule": "CC(Cc1cccc(Cl)c1)NC(=O)c1c(C(F)F)nn(C)c1F (stereo not drawn)", "quantity name": "Efficacy", "endpoint value": "90%"}
{"molecule": "Cn1nc(C(F)F)c(C(=O)NCCc2ncc(C(F)(F)F)cc2Cl)c1F", "quantity name": "Efficacy", "endpoint value": "85%"}
{"molecule": "CC(Cc1ncc(C(F)(F)F)cc1Cl)N(C(=O)c1c(C(F)F)nn(C)c1F)C1CC1 (stereo not drawn)", "quantity name": "Efficacy", "endpoint value": "80%"}
{"molecule": "COC(c1ccc(Cl)cc1Cl)C(C)NC(=O)c1cn(C)nc1C(F)F (stereo not drawn) [1.14 from WO-2008/148570, reference compound]", "quantity name": "Efficacy", "endpoint value": "98%"}
{"molecule": "CC(Cc1cc(Cl)ccc1Cl)NC(=O)c1c(C(F)F)nn(C)c1F (stereo not drawn)", "quantity name": "Efficacy", "endpoint value": "90%"}

* * *

Measured Efficacy values are reported for all entries that follow.
Tested on: Puccinia triticina
experiment: In vivo preventive test on Puccinia triticina (wheat)
setup conditions: dose 500 ppm of active ingredient, evaluated 8 days after inoculation

{"molecule": "CN(CCc1cc(Cl)ccc1Cl)C(=O)c1c(C(F)F)nn(C)c1Cl", "readout units": "%", "Efficacy": 70}
{"molecule": "CC(Cc1ccccc1Cl)NC(=O)c1c(C(F)F)nn(C)c1Cl (stereo not shown)", "readout units": "%", "Efficacy": 80}
{"molecule": "CC(Cc1ncc(C(F)(F)F)cc1Cl)N(C(=O)c1c(C(F)F)nn(C)c1F)C1CC1 (stereo not shown)", "readout units": "%", "Efficacy": 90}
{"molecule": "COC(c1cc(Cl)cc(Cl)c1)C(C)NC(=O)c1c(C(F)F)nn(C)c1Cl (mixture of isomers)", "readout units": "%", "Efficacy": 100}
{"molecule": "Cn1nc(C(F)F)c(C(=O)NC[Si](C)(C)c2ccc(Cl)cc2Cl)c1Cl", "readout units": "%", "Efficacy": 70}
{"molecule": "Cn1nc(C(F)F)c(C(=O)NC[Si](C)(C)c2ccccc2Cl)c1F", "readout units": "%", "Efficacy": 95}
{"molecule": "COC(CN(C(=O)c1c(C(F)F)nn(C)c1F)C1CC1)c1ccc(Cl)cc1Cl (stereo not shown)", "readout units": "%", "Efficacy": 80}
{"molecule": "Cn1nc(C(F)F)c(C(=O)N(C[Si](C)(C)c2ccc(Cl)cc2Cl)C2CC2)c1F", "readout units": "%", "Efficacy": 100}
{"molecule": "CC(Cc1cc(Cl)cc(Cl)c1)NC(=O)c1c(C(F)F)nn(C)c1F (stereo not shown)", "readout units": "%", "Efficacy": 70}
{"molecule": "CC(Cc1c(Cl)cccc1Cl)N(C(=O)c1c(C(F)F)nn(C)c1F)C1CC1 (stereo not shown)", "readout units": "%", "Efficacy": 90}
{"molecule": "CC(Cc1ncc(C(F)(F)F)cc1Cl)N(C(=O)c1c(C(F)F)nn(C)c1Cl)C1CC1 (stereo not shown)", "readout units": "%", "Efficacy": 80}
{"molecule": "Cn1nc(C(F)F)c(C(=O)N(C[Si](C)(C)c2ccccc2Cl)C2CC2)c1F", "readout units": "%", "Efficacy": 100}
{"molecule": "Cc1nn(C)c(F)c1C(=O)N(C(C)Cc1ncc(C(F)(F)F)cc1Cl)C1CC1 (stereo not shown) [compound CMP5, reference compound]", "readout units": "%", "Efficacy": 11}
{"molecule": "Cn1nc(C(F)F)c(C(=O)NC[Si](C)(C)c2ccccc2Cl)c1Cl", "readout units": "%", "Efficacy": 95}
{"molecule": "CC(Cc1c(F)cccc1Cl)N(C(=O)c1c(C(F)F)nn(C)c1Cl)C1CC1 (stereo not shown)", "readout units": "%", "Efficacy": 80}
{"molecule": "Cn1nc(C(F)F)c(C(=O)N(C[Si](C)(C)c2ccccc2)C2CCCCC2)c1F", "readout units": "%", "Efficacy": 80}
{"molecule": "CC(Cc1cc(Cl)cc(Cl)c1)NC(=O)c1c(C(F)F)nn(C)c1Cl (stereo not shown)", "readout units": "%", "Efficacy": 70}
{"molecule": "Cn1nc(C(F)F)c(C(=O)NC[Si](C)(C)c2ccc(Cl)cc2Cl)c1F", "readout units": "%", "Efficacy": 100}
{"molecule": "Cn1nc(C(F)F)c(C(=O)N(C[Si](C)(C)c2cccc(Cl)c2)C2CC2)c1F", "readout units": "%", "Efficacy": 100}
